Hey, just so you know, these numbers are from the supplement of paper PMC9170038.

test system: K4 kissing-loop RNA reporter; assay: apparent KD of K4 kissing-loop reporter; higher = weaker reporter binding; details: Eterna round: R107; input ligand: theophylline 20 uM;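 also: bound reporter read as fluorescence of individual clusters on recovered sequencing chips by microscopy, with normalized cluster intensities fitted with a binding model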
Each entry gets false if its apparent KD of K4 kissing-loop reporter stays under 200 nM, and true if its apparent KD of K4 kissing-loop reporter is 200 nM or above.

[
  {
    "QUERY_SEQUENCE": "AAAUAGCAGCAACGAGUGAUGUUCGACGAUACCAGCCUCGAUAGAGGCCCUUGGCAGCGUAAAUGAUCACAAAGCCAAGGGCUGC [#SwitchBubble 2]",
    "TARGET_UNDER_TEST": "K4 kissing-loop RNA reporter",
    "GROUP": "true"
  },
  {
    "QUERY_SEQUENCE": "UUUUAUUAGUAGUGAUGUUACUAAACUGAAGGAGCGAGAUUUAACUCAGGUAGGUCGCAGAAAAUCAAUUAAUUUAUAAAUUAAA [JR_SSArginiA_Sub011]",
    "TARGET_UNDER_TEST": "K4 kissing-loop RNA reporter",
    "GROUP": "false"
  },
  {
    "QUERY_SEQUENCE": "CGCAGUGAUGUUGCUUAUAUUCUUGGUUAACGAGGACCGGUACGGCCGCCACUCGAUUUCUAUCUAUUCCAGUGUUAAUUUGAGU [JR_ExcTryptoA_Sub005]",
    "TARGET_UNDER_TEST": "K4 kissing-loop RNA reporter",
    "GROUP": "true"
  },
  {
    "QUERY_SEQUENCE": "UGUCAUUGGUCUGAUACCAGUUGAUAAACUGGAGUGAUGUUCCAAGAACGAGAAACUCGCAACCCUUGGCAGCAGACCGAUGACU [TheoBS 17 #SwitchBubble 13 #StaticStem]",
    "TARGET_UNDER_TEST": "K4 kissing-loop RNA reporter",
    "GROUP": "true"
  },
  {
    "QUERY_SEQUENCE": "UAAAAUAAAUAAUAGAGAGCGUUACUCGAAGGAGCGACGAAUUCGUCAGGUAGGUCGCGAGUGAUGUUCGCAAAUACGCUCUCAU [AK2 Exc Arginine A]",
    "TARGET_UNDER_TEST": "K4 kissing-loop RNA reporter",
    "GROUP": "true"
  },
  {
    "QUERY_SEQUENCE": "AAGUGAUGUUGUAGUGAUGUUGUGAUGUUGCAGGAUAUAUAGUGAUGUAGAAGGGUAUGUACAGAUUUUUUUUUUGAGUGAUGUU [ffdcmullin]",
    "TARGET_UNDER_TEST": "K4 kissing-loop RNA reporter",
    "GROUP": "false"
  },
  {
    "QUERY_SEQUENCE": "UCCCUAAAGGGAGAUACCAGUAAAGAAGUGACGGAGUGGAGUGAUGUUCCAUAUUACUGAUACCCUUGGCAGCUCUUUUGAUUAC [theeternabot_sameState_KL_Theo_B_47]",
    "TARGET_UNDER_TEST": "K4 kissing-loop RNA reporter",
    "GROUP": "false"
  },
  {
    "QUERY_SEQUENCE": "CCUAUCUCAUACGAUACCAGUCUACGAUAUUUUAUCGUUGCCAUCACCGAGUGAUGUUCGGACCCUUGGCAGCGUAUGGGAUAGG [Ex Theophylline B K4 5]",
    "TARGET_UNDER_TEST": "K4 kissing-loop RNA reporter",
    "GROUP": "true"
  },
  {
    "QUERY_SEQUENCE": "UGAUACCAGACUGAUACCAGCCACAGAGUCAAAGACUCUGAAAGGGAAACCAGUGAUGUUGGCCCUUGGCAGCAGUCUGGUAUCU [TheoBX 23 #SwitchBubble #StaticStem]",
    "TARGET_UNDER_TEST": "K4 kissing-loop RNA reporter",
    "GROUP": "true"
  },
  {
    "QUERY_SEQUENCE": "GUACAUUGGAAACAAGAACAAAUAACCGAAGGAGCGCGUGAAAACGCAGGUAGGUCGCGGAAGCAGUGAUGUUGCAUUAGAGAUC [Same State Arginine A GF 16]",
    "TARGET_UNDER_TEST": "K4 kissing-loop RNA reporter",
    "GROUP": "false"
  },
  {
    "QUERY_SEQUENCE": "UGAUUUAACUGAAGGAGCGGCAAUUGAUAAGGAAAUAUAGUGAUGUUAUAUAAGAGAGAGAGCCAGGUAGGUCGCAGAGGGAGGA [ExArgB.H]",
    "TARGET_UNDER_TEST": "K4 kissing-loop RNA reporter",
    "GROUP": "false"
  },
  {
    "QUERY_SEQUENCE": "AAAAUAAACCAGUGAUGUUGGUGUCCAGAUACCAGCGACGAAAGUCGCCCUUGGCAGCUGUGGACGUACAAAAUAAGUACGUCCU",
    "TARGET_UNDER_TEST": "K4 kissing-loop RNA reporter",
    "GROUP": "true"
  }
]
